This document collects MIC values reported for E.faecium 134 VRE.
Please respond with the number in µg/mL and leave the unit unwritten.

// worked examples, MIC included
COC(=O)NC[C@H]1CN(c2ccc(N3CC[Si](C)(C)CC3)c(F)c2)C(=O)O1 [NDS-10061]    16
CC(=O)NCC1CN(c2ccc(N3CC[Si](C)(C)CC3)c(F)c2)C(=O)O1 (stereo not drawn) [NDS-10026]    16
C[Si]1(C)CCN(c2c(F)cc(N3C[C@H](CN)OC3=O)cc2F)CC1 [NDS-10054]    16
C[Si]1(c2ccccc2)CCN(c2c(F)cc(N3C[C@H](CO)OC3=O)cc2F)CC1 [NDS-10071]    8
CC(=O)NC[C@H]1CN(c2ccc(N3CC[Si](C)(C)CC3)c(F)c2)C(=O)O1 [NDS-10024]    16
CCC(=O)NC[C@H]1CN(c2cc(F)c(N3CC[Si](C)(C)CC3)c(F)c2)C(=O)O1 [NDS-10056]    32
C[Si]1(C)CCN(c2ccc(N3C[C@H](CO)OC3=O)cc2F)CC1 [NDS-10059]    32

Fill blank: measured MIC of the compound C[Si]1(C)CCN(c2ccc(N3C[C@H](CN)OC3=O)cc2F)CC1 [NDS-10057] is ____.
32

Where do these numbers come from? They come from patent US9233989B2.
